# System: T1, Mical1 MO-CH-LIM (residues 1-781) (human, UniProt Q8TDZ2 1-781)
# T1 sequence: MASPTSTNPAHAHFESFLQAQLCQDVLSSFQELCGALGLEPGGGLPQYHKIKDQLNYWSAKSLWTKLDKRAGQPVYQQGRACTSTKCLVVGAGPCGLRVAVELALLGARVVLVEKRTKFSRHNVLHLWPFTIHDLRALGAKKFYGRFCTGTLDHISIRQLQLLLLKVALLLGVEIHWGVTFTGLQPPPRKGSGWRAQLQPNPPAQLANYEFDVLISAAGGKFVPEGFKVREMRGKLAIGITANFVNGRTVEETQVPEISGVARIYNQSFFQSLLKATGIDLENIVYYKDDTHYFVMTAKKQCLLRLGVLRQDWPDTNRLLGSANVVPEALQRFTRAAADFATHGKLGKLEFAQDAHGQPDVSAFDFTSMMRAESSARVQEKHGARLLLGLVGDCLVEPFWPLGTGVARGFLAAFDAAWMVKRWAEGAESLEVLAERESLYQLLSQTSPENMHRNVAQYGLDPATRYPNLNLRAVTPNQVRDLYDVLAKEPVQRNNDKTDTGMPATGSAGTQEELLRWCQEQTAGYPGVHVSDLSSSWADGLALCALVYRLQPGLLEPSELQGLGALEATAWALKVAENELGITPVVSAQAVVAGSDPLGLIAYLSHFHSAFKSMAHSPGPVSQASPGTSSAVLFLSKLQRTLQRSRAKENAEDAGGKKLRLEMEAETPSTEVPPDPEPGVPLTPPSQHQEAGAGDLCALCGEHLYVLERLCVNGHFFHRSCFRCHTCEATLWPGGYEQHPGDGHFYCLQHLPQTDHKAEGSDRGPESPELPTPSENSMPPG
# Test Protocol: ITC
Property Measured: fold reduction in affinity against wild-type bMERB (fold)
Number in fold, nothing else.

Need fold reduction in affinity against wild-type bMERB of bMERB K918A_E921A (domain or fragment) AEEAMKRFCKAQTIQRRLNEIEAALRELEAEGVKLELALRRQSSSPEQQKKLWVGQLLQLVDKKNSLVAEEAELMITVQELNLEEKQWQLDQELRGYMNREENLKTAADRQAEDQVLRKLVDLVNQRDALIRFQEERRLSELALGTGAQG , thanks.
2

Need fold reduction in affinity against wild-type bMERB of bMERB L974A_L975A (domain or fragment) KEEEMKRFCKAQTIQRRLNEIEAALRELEAEGVKLELALRRQSSSPEQQKKLWVGQAAQLVDKKNSLVAEEAELMITVQELNLEEKQWQLDQELRGYMNREENLKTAADRQAEDQVLRKLVDLVNQRDALIRFQEERRLSELALGTGAQG , thanks.
6

Need fold reduction in affinity against wild-type bMERB of bMERB W970A (domain or fragment) KEEEMKRFCKAQTIQRRLNEIEAALRELEAEGVKLELALRRQSSSPEQQKKLAVGQLLQLVDKKNSLVAEEAELMITVQELNLEEKQWQLDQELRGYMNREENLKTAADRQAEDQVLRKLVDLVNQRDALIRFQEERRLSELALGTGAQG , thanks.
4
